Each entry below carries its recorded melting point.
measured-parameter: melting point

> print(dat)
                         structure.notation  measured.parameter       reported
1  COCCc1nc2c(N)nc3cc(-c4ccsc4)ccc3c2n1CC(C)(C)O       melting point  233 to 234 °C
2  CCOC(=O)[C@H]1[C@@H]2CC(=O)[C@@](N=[N+]=[N-])(C(=O)OCc3ccccc3)[C@@H]21       melting point    46 to 48 °C
3  CCC(=O)N1CCC(NC(=O)Nc2ccc(OC(F)(F)F)cc2)CC1       melting point  195 to 196 °C
4  Cn1c(COc2cccc(C(=O)O)c2)nc2ccc(Oc3cccc(OC(F)(F)F)c3)cc21       melting point  221 to 227 °C
5            CCCC(C)(C)c1nsc(N=CN(C)C)c1C#N       melting point    65 to 67 °C
6  O=[N+]([O-])c1cnc(Oc2cnc3ccccc3c2)c(Cl)c1       melting point  123 to 127 °C
7                 C=C(C#N)CN1CCC(C(=O)O)CC1       melting point  109 to 111 °C
8               BrCc1ccc(-c2ccc(CBr)cc2)cc1       melting point  166 to 168 °C

* * *

melting point values, listed per item
measured-parameter: melting point

> print(dat)
                                   compound  measured.parameter       reported
1       Nc1c(Br)cc2c3c(cccc13)C(=O)N(O)C2=O       melting point  318 to 324 °C
2  COc1ccc(N2CCN(c3c(C)c(C)c4c(c3C)C(O)(c3cccs3)C(C)(C)O4)CC2)cc1 (stereo not drawn)       melting point  154 to 155 °C
3  COc1cc2c(cc1OC)N(C(=O)c1ccc(-c3ccccc3OC)c(C)c1)Cc1ccc(C(=O)N(C)CC(O)C(O)C(O)C(O)CO)n1C2 (stereo not drawn)       melting point  110 to 120 °C

* * *

measured-parameter: melting point

> print(dat)
                         structure.notation       reported
1      CO/C=C(/C(=O)OC)c1ccccc1Oc1cccc(O)c1  117 to 118 °C
2  O=C1NCCc2ccccc2N1OCCCCN1CCN(c2cccc(C3CC3)n2)CC1  155 to 156 °C
3  COc1cccc(Nc2ccnc(Nc3ccc(OC)c(OC)c3)n2)c1  135 to 138 °C

* * *

Entries annotated with measured melting point
measured-parameter: melting point

> print(dat)
                                   compound  measured.parameter       reported
1              COC(=O)c1nccnc1Nc1ccc(Cl)cc1       melting point  135 to 136 °C
2  CCOCC1C(C(=O)O)C1(C)C (stereo unspecified)       melting point  40 to 40.5 °C
3  COc1cccc(Oc2ccc([N+](=O)[O-])c(C(=O)O)c2)c1       melting point  146 to 151 °C
4  CS(=O)Cc1cc(=O)c2ccccc2o1 (stereo unspecified)       melting point  142 to 146 °C
5  c1ccc(CN2CCN(Cc3ccccc3)[C@@H](CCc3cccnc3)C2)cc1       melting point  94 to 95.5 °C
6  CN1Cc2c(C(N)=NO)ncn2-c2ccc(F)c(Cl)c2C1=O       melting point  228 to 231 °C

* * *

melting point values, listed per item
measured-parameter: melting point

> print(dat)
                                   molecule       reported
1  CN(C(=O)N1CCN2C(=O)OC(c3ccccc3)(c3ccccc3)C2C1)c1ccccc1 (centres undefined)  146 to 147 °C
2  COC(=O)C(Cc1cc(Br)c(S(=O)(=O)c2ccc(OC)c(C(C)C)c2)c(Br)c1)C(=O)OC  121 to 123 °C
3  COc1cc(C(=O)NCc2ccccc2)cc(NC(=O)c2ccccc2)n1  132 to 133 °C
4               C=CCN(CC=C)c1cc(CCl)nc(N)n1    53 to 55 °C

* * *

measured-parameter: melting point

> print(dat)
                                    compound        reported
 1  O=C1CCC(N2C(=O)c3cccc(OCc4ccc(CN5CC6CCC(C5)O6)cc4)c3C2=O)C(=O)N1 (stereo not given)   196 to 198 °C
 2  CCOC(=O)C1=C(C)NC(=O)N(C(=O)OC(C)C)C1c1cccc(Cl)c1Cl (stereo not given)   139 to 140 °C
 3  CC(c1ccc2c(c1)C(=O)c1ccccc1C2=O)N1CCN(C)CC1 (stereo not given)  98.9 to 102 °C
 4  CC(C)Oc1ccc(-c2nn(C(C)c3oc4ccccc4c(=O)c3-c3cccc(F)c3)c3ncnc(N)c23)cc1 (stereo not given)   224 to 226 °C
 5  CC(=O)OC1CSC(Oc2cc(-c3cccnc3)ccc2Cl)C(OC(C)=O)C1OC(C)=O (stereo not given)          155 °C
 6                   Nc1ccc2c(c1)N1CCCN=C1S2          197 °C
 7  COC(=O)COc1ncccc1Oc1cc(NC(=O)CC(=O)C(F)(F)F)c(F)cc1Cl          159 °C
 8                COC(=O)Cc1ccccc1OCc1ccccc1     74 to 75 °C
 9       C#Cc1cnc2c(c1)C(=O)N(C)c1cccnc1N2CC   117 to 118 °C
10                     Clc1cccc(-c2cnccn2)c1     53 to 54 °C

* * *

# maps each entry to its melting point
measured-parameter: melting point

> print(dat)
                                    compound       reported
 1  CCOC(=O)c1oc2cccc(OCC(C)O)c2c1C (stereo unspecified)    94 to 96 °C
 2  Cn1c(=O)c(C#N)c(N2CCN(C(=O)c3ccco3)CC2)c2cc(F)ccc21         263 °C
 3           COc1ccc(-c2nc(C)c(C(=O)O)s2)cc1  129 to 131 °C
 4  CC1(C)Oc2ccc(OCc3ccccc3)cc2C2OC21 (stereo unspecified)    70 to 72 °C
 5  CC(C)Oc1ccc2c(c1)C(=O)c1ccc(C(=O)O)cc1CC2  174 to 177 °C
 6     Cc1ccc(Cl)c(Nc2ccccc2-c2nnc(N)o2)c1Cl  255 to 257 °C
 7  COc1ccc(SC2CC(=O)N2)cc1OC (stereo unspecified)  145 to 146 °C
 8  COC(=O)C1CCc2cc(C(=O)c3cccs3)c(O)cc21 (stereo unspecified)  183 to 184 °C
 9  COc1ccnc(CS(=O)c2nc3cc4c(cc3[nH]2)OC(F)(F)C(F)(Cl)O4)c1 (stereo unspecified)  179 to 181 °C
10  CC1(Cc2ccccc2)CCCNC1=O (stereo unspecified)    76 to 78 °C
11             CCOC(=O)c1cc(C)c(C(=O)OCC)n1C  48 to 48.5 °C
12  CCC(CC)CNC(=O)c1ccc2cccc(Cc3ccc(C(=O)NS(=O)(=O)c4ccccc4)cc3OC)c2c1  210 to 211 °C
13  CS(=O)(=O)c1ccc(-c2cnn(CC=Cc3ccccc3)c(=O)c2-c2ccc(F)cc2)cc1  165 to 167 °C
14      O=C(Nc1ccc(Cl)c(C(F)(F)F)c1)c1ccccc1  130 to 131 °C
15     CC1(C)OC(=O)Nc2ncc(-c3cccc(Cl)c3)cc21  214 to 215 °C
16     N=C(Nc1ccccc1-c1cccc(F)c1)N1CCC(O)CC1  147 to 148 °C
17       CC(C)CN1CN(C)CN(c2c(Cl)cccc2Cl)C1=S  133 to 135 °C
18  c1ccc(C(c2ccccc2)N2C(=NCCCn3ccnc3)c3cccc4cccc2c34)cc1  142 to 143 °C
19                       COCOc1cccc2c1CCC2=O    51 to 54 °C
20                     Clc1nn2nnnc2c2c1CCCC2  109 to 110 °C
21      OCc1cn(-c2c(Cl)cc(C(F)(F)F)cc2Cl)nn1  123 to 125 °C
22  Cc1cc(SCc2sc(-c3ccc(C(F)(F)F)cc3)nc2C)c2c(c1OCC(=O)O)CCO2  157 to 158 °C
23  CCCCCCCCCCCCCCCCOC[C@@H]1OCCC[C@H]1O (relative stereo)  41.5 to 43 °C
24                        C#CCn1ccc(CO)c1C#N          65 °C
25  COC(=O)N[C@H]1CC[C@H](CCN2CCN(c3cccc(Cl)c3Cl)CC2)CC1  143 to 147 °C
26  Cc1nc(NCCCO)c([N+](=O)[O-])c(N2CCc3ccccc3CC2)n1  104 to 108 °C
